The origin of these recorded values is PubChem BioAssay AID1159580.

# Method Summary: chemical genetic growth profiling, strain panel (AID 1159580);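 also: tested at 20 µM; growth read once vehicle control cultures reached saturation at 30 °C; 1 = growth at the plate median or of vehicle wells; lower values mean less growth of the strain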
# Run Conditions: S. cerevisiae deletion strains, growth OD, locus YGL167C, strain pmr1, active compounds read low
Out of some 5,500 compounds screened, about 2,000 (36%) were called active. Inconclusive results (about 18%) are left out. The list shows a part of the results.
Recorded normalized growth values for a group of compounds are listed next.
Write no unit; give the number alone.

Below, 3 compounds whose answers are already recorded.
NCC(CC(=O)O)c1ccc(Cl)cc1 (stereo not given) | 0.99
C[C@H](N)[C@H](O)c1cccc(O)c1 | 1.02
CN1CCN(C2=Nc3ccccc3Oc3ccc(Cl)cc32)CC1 | 0.984

Just so you know, measured normalized growth for "O=c1cc(-c2ccc(O)cc2)oc2cc(O)ccc12" came out at 0.945
